- procedure.details: Differential nuclear staining (DNS) cytotoxicity assay
- Format: cell-based
- measurement.parameters: human, Hs27 cells (non-cancerous) versus HT-29 cells (cancer); CC50 Hs27 / CC50 HT-29; read-out: SCI (Selective Cytotoxicity Index)
property.name: selectivity ratio at 48 h
Provide a numeric answer; units are not to be included.

Give selectivity ratio at 48 h for O=C1/C(=C/c2ccc(O)c(CN3CCOCC3)c2)CNC/C1=C\c1ccc(O)c(CN2CCOCC2)c1
2.85

###

- procedure.details: Differential nuclear staining (DNS) cytotoxicity assay
- Type: cell-based
- measurement.parameters: human, Hs27 non-cancerous cells
property.name: CC50 at 48 h (µM)
Respond numerically; units are µM and should not be typed.

Give CC50 at 48 h for O=C1/C(=C/c2ccc(O)c(CN3CCOCC3)c2)CNC/C1=C\c1ccc(O)c(CN2CCOCC2)c1 [P5]
5.5

###

- procedure.details: Differential nuclear staining (DNS) cytotoxicity assay
- Type: cell-based
- measurement.parameters: human, Hs27 cells (non-cancerous) versus K562 cells (cancer); CC50 Hs27 / CC50 K562; read-out: SCI (Selective Cytotoxicity Index)
property.name: selectivity ratio at 48 h

Give selectivity ratio at 48 h for O=C1/C(=C/c2ccc(O)c(CN3CCOCC3)c2)CNC/C1=C\c1ccc(O)c(CN2CCOCC2)c1 [P5]
1.29

###

- procedure.details: DNS assay, summary over the non-cancerous cell lines
- Assay type: cell-based
- measurement.parameters: human, Hs27 and MCF-10A non-cancerous cells, mean of two non-cancerous cell lines, read-out: average CC50 towards Hs27 and MCF-10A
property.name: CC50 at 48 h (µM)
Respond numerically; units are µM and should not be typed.

Give CC50 at 48 h for O=C1/C(=C/c2ccc(O)c(CN3CCOCC3)c2)CNC/C1=C\c1ccc(O)c(CN2CCOCC2)c1
3.84

###

- procedure.details: Differential nuclear staining (DNS) cytotoxicity assay
- Format: cell-based
- measurement.parameters: human, Hs27 cells (non-cancerous) versus CCRF-CEM cells (cancer); CC50 Hs27 / CC50 CCRF-CEM; read-out: SCI (Selective Cytotoxicity Index)
property.name: selectivity ratio at 48 h
Provide a numeric answer; units are not to be included.

Give selectivity ratio at 48 h for O=C1/C(=C/c2ccc(O)c(CN3CCOCC3)c2)CNC/C1=C\c1ccc(O)c(CN2CCOCC2)c1 [P5]
8.42

###

- procedure.details: Differential nuclear staining (DNS) cytotoxicity assay
- Format: cell-based
- measurement.parameters: human, MCF-10A non-cancerous cells
property.name: CC50 at 48 h (µM)
Respond numerically; units are µM and should not be typed.

Give CC50 at 48 h for O=C1/C(=C/c2ccc(O)c(CN3CCOCC3)c2)CNC/C1=C\c1ccc(O)c(CN2CCOCC2)c1
2.18

###

- procedure.details: Differential nuclear staining (DNS) cytotoxicity assay
- Format: cell-based
- measurement.parameters: human, Hs27 cells (non-cancerous) versus HL-60 cells (cancer); CC50 Hs27 / CC50 HL-60; read-out: SCI (Selective Cytotoxicity Index)
property.name: selectivity ratio at 48 h
Provide a numeric answer; units are not to be included.

Give selectivity ratio at 48 h for O=C1/C(=C/c2ccc(O)c(CN3CCOCC3)c2)CNC/C1=C\c1ccc(O)c(CN2CCOCC2)c1
7.47

###

- procedure.details: Differential nuclear staining (DNS) cytotoxicity assay
- Format: cell-based
- measurement.parameters: human, Hs27 cells (non-cancerous) versus Jurkat cells (cancer); CC50 Hs27 / CC50 Jurkat; read-out: SCI (Selective Cytotoxicity Index)
property.name: selectivity ratio at 48 h
Provide a numeric answer; units are not to be included.

Give selectivity ratio at 48 h for O=C1/C(=C/c2ccc(O)c(CN3CCOCC3)c2)CNC/C1=C\c1ccc(O)c(CN2CCOCC2)c1
6.05

###

- procedure.details: Differential nuclear staining (DNS) cytotoxicity assay
- Format: cell-based
- measurement.parameters: human, Hs27 cells (non-cancerous) versus Ramos cells (cancer); CC50 Hs27 / CC50 Ramos; read-out: SCI (Selective Cytotoxicity Index)
property.name: selectivity ratio at 48 h
Provide a numeric answer; units are not to be included.

Give selectivity ratio at 48 h for O=C1/C(=C/c2ccc(O)c(CN3CCOCC3)c2)CNC/C1=C\c1ccc(O)c(CN2CCOCC2)c1
5.19
